Quick reference for GI50 among some compounds
test system: ACHN renal; assay: NCI tumour cell line growth inhibition, 48 h

A selection of reference data follows.
                                   compound  readout_type   measured
0  COc1ccc(C2=CC(c3ccc(OC)cc3Br)N3C=CSC3=N2)cc1 (stereo not given)          GI50    2.39 µM
1  COC(=O)Nc1nc2ccc(Oc3cccc(NC(=O)Nc4cc(C(F)(F)F)ccc4F)c3)cc2[nH]1          GI50    24.4 µM
2  COc1cc([N+](=O)[O-])c(OC)cc1-c1nc2sccn2c1/C=N/N=C(N)N          GI50    12.8 µM
3            COc1ccc(CC(=O)c2ccc(O)cc2O)cc1          GI50   > 100 µM
4                  N#CSCc1ccc(Cl)c(CSC#N)c1          GI50  0.0865 µM
5  CC1=C(CCC(C)NCc2ccc(OCCCN3CCCCC3)cc2)C(C)(C)CCC1 (stereo not given)          GI50    1.69 µM
6  CN(C)CC1CCC2=C(C1=O)C(c1ccc(Cl)c(Cl)c1)C1=C(CCC(CN(C)C)C1=O)O2 (stereo not given)          GI50    14.3 µM
7           Nc1ccccc1C#C/C=C\C#Cc1cccc(O)c1          GI50    2.64 µM

# GI50 of "COc1cc(/C=C/C(=O)c2ccc(F)cc2)ccc1OCCCN1CCN(CC(=O)Nc2ccc(Cl)cc2C(=O)c2ccccc2Cl)CC1" = 12.5 µM

Memo: "COC(=N)c1c(N)[n+]([O-])c2ccc(F)cc2[n+]1[O-]" , reported GI50: > 100 µM

Just for reference, PubChem BioAssay (NCI) is where these values come from.
